These entries and their values trace back to the supplement of paper PMC10567573.

B1: SLC35F2 (parent)
chain: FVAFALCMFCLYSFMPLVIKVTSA

- Variants of: B1
- Assay Info: protein stability index of a GFP-peptide fusion (GPS, HEK-293T) (PSI 1-6); higher = more stable;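 also: lentivirally expressed fusions sorted by FACS into six bins by GFP to DsRed ratio, PSI derived from sequencing read proportions per bin multiplied by bin number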
- Experimental Context: c terminus: a fixed tail appended
Assign class by protein stability index: not lower than 3 means Satisfied; lower than 3 means Not satisfied.

Previously resolved entries follow.
> print(dat)
   mutations            cat
1       L11Y  Not satisfied
2       L17D  Not satisfied
3        C7Y  Not satisfied

Quick check, protein stability index >= 3? `A5I`
Satisfied

Quick check, protein stability index >= 3? `P16C`
Satisfied

Quick check, protein stability index >= 3? `A3M`
Not satisfied

Quick check, protein stability index >= 3? `S23K`
Not satisfied

Quick check, protein stability index >= 3? `V18H`
Not satisfied

Quick check, protein stability index >= 3? `L11D`
Satisfied

Quick check, protein stability index >= 3? `M8R`
Satisfied

Quick check, protein stability index >= 3? `I19Y`
Not satisfied

Quick check, protein stability index >= 3? `F9L`
Not satisfied

Quick check, protein stability index >= 3? `S23D`
Not satisfied

Quick check, protein stability index >= 3? `C10W`
Not satisfied

Quick check, protein stability index >= 3? `M15D`
Satisfied

Quick check, protein stability index >= 3? `I19C`
Not satisfied

Quick check, protein stability index >= 3? `A3Y`
Satisfied

Quick check, protein stability index >= 3? `C10A`
Not satisfied

Quick check, protein stability index >= 3? `M15N`
Satisfied

Quick check, protein stability index >= 3? `F9G`
Not satisfied

Quick check, protein stability index >= 3? `F14N`
Not satisfied

Quick check, protein stability index >= 3? `F1M`
Not satisfied

Quick check, protein stability index >= 3? `Y12M`
Not satisfied
